target: RSV F protein of subtype A strain A2, on virus (respiratory syncytial virus subtype A …, UniProt P03420 26-574); assay: cell-based or functional assay
REPORTED_METRIC: Neut IC50 (ug/ml) subtype A

Lab note: measured Neut IC50 (ug/ml) subtype A of ADI-15640 (antibody, V domains shown, IgG; also called Antibody Number 204) VH: QVQLVESGPALVKPTQTLTLTCAFSGFSLTTRGMSVSWIRQPPGKALEWLARIDWDDDKYYSTSLKTRLTISKDTSKNQVVLTMSNMDPVDTATYYCARASLYDSGGYYLFFFDYWGQGTLVTVSS VL: DIVMTQSPSSLSASVGDRVTITCRASQSIGSYLNWYQQKPGKVPKLLIYAASNLQGGVPSRFRGSGSGTDFTLTISNLQPEDFASYYCQLSYSSLWTFGQGTKVEIK was > 10 µg/mL

Lab note: measured Neut IC50 (ug/ml) subtype A of ADI-15607 (antibody, V domains shown) VH: QVQLVQSGGGLVQPGGSLRLSCAASRFTFSSYAMSWVRQAPGKGLEWVSTISGSGISTYYADSVKGRFTISRDNSKNTLYLQMNSLSAEDTAVYYCAKELREYYYDSSGFDYWGQGTLVTVSS VL: QPVLTQSRSVSGSPEQSVTISCTGTSSDVGGYNYVSWYQQHPGKAPKLMIYDVSKRPSGVPDRFSGSKSGNTASLTISGLQAEDESDYYCCSYAGTYTYVFGTGTKVTVL was > 10 µg/mL

Lab note: measured Neut IC50 (ug/ml) subtype A of ADI-15649 (antibody, V domains shown, IgG) VH: EVQLVESGGGLVKPGGSLRLSCAAPGFTIRSYTMYWVRQAPGKGLEWVASISSSSSYIHYGDSVKGRFTIARDNAKNSLYLQMNSLRAEDTAVYYCVRDHCTGGSCYLNGMDVWGQGTTVTVSS VL: QPVLTQPPSVSGAPGQRVTISCTGTSSNIGAGYDVHWYQQLPGTAPKLLIYGNNNRPSGVPDRFSGSKSGTSASLAITGLQAEDEADYYCQSYDSSLSGSVFGGGTKLTVL was > 10 µg/mL
